molecular target: rat MCH-1 (Rattus norvegicus, UniProt P97639); test: Radioligand binding assay at cloned rat MCH1 receptor ([3H] Compound A); design: host or cells: Peak rapid 293 (Peakr293) cells, transient calcium phosphate transfection, membranes; conditions: cloned rat MCH1 receptor; 0.08 nM [3H] Compound A; Peakr293 cell membranes; read-out: Ki (nM) rMCH1
Sequence (P97639 whole entry): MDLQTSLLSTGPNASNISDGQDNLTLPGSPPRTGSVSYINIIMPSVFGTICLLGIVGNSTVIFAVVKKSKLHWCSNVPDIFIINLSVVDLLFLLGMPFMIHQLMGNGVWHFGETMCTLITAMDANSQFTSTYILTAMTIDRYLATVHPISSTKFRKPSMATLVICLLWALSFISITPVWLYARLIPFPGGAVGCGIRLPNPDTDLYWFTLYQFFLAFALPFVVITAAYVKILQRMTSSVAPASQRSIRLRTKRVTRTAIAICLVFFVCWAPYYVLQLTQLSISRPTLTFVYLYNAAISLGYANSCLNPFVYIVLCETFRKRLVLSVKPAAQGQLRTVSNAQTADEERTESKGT
We begin with a simple list: items and their reported log10(Ki).
The base-10 logarithm of Ki, taken with Ki in nM, is what appears here.

COMPOUND	VALUE TYPE	OBSERVED
Cc1cccc2c(CCCN3CCC(c4cccc(NC(=O)C(C)C)c4)CC3)c(-c3ccc(Br)cc3)[nH]c12 [Example 753]	log10(Ki)	1.22

// log10(Ki) lookup, compound = CC(C)C(=O)Nc1cccc(C2CCN(Cc3ccc4c(ccn4-c4ccccc4F)c3)CC2)c1 [Example 852] , result: 1.16

CC(C)C(=O)Nc1cccc(C2CCN(CCCc3c(-c4ccc(Br)cc4)[nH]c4ccccc34)CC2)c1 [Example 756] yielded log10(Ki) of 0.62

====

molecular target: rat MCH-1 (Rattus norvegicus, UniProt P97639); experiment: Radioligand binding assay at cloned rat MCH1 receptor ([3H] Compound A); parameters: host or cells: Peak rapid 293 (Peakr293) cells, transient calcium phosphate transfection, membranes; conditions: cloned rat MCH1 receptor; 0.08 nM [3H] Compound A; Peakr293 cell membranes; read-out: Ki (nM) rMCH1
VALUE TYPE: Ki
Value and unit, in that order.

Recorded results for 5 molecules are shown here.
MOLECULE	Ki
CC(C)C(=O)Nc1cccc(C2CCN(Cc3c[nH]c4cccc(Br)c34)CC2)c1	968 nM
Cc1ccc(C(=O)CCCN2CCC(c3cccc(NC(=O)C(C)C)c3)CC2)cc1	31.2 nM
CC(C)C(=O)Nc1cccc(C2CCN(CCCc3c(-c4ccccc4F)[nH]c4c3ccc3ccccc34)CC2)c1	3 nM
CC(C)C(=O)Nc1cccc(C2CCN(CCC[S+]([O-])c3ccccc3Br)CC2)c1 (centres unmarked)	138 nM
CC(C)C(=O)Nc1cccc(C2CCN(CCCc3c(-c4ccc([N+](=O)[O-])cc4)n(-c4ccccc4)c4ccccc34)CC2)c1	36.4 nM

Hey, rat MCH-1 (Rattus norvegicus, UniProt P97639) data for CC(C)C(=O)Nc1cccc(C2CCN(CC[C@H](NS(=O)(=O)c3ccc(C(C)(C)C)cc3)c3ccccc3)CC2)c1 : Ki came out at 50 nM

So the reported Ki for CCC(=O)Nc1ccc(C2CCN(CCCCCn3ccc4ccccc43)CC2)cc1 , on rat MCH-1 (Rattus norvegicus, UniProt P97639), turned out to be 215 nM

# value of Ki, rat MCH-1 (Rattus norvegicus, UniProt P97639), item CC(C)C(=O)Nc1cccc(C2CCN(CCCc3c(-c4cccc(Br)c4)n(C)c4ccccc34)CC2)c1 = 110 nM

====

biological target: rat MCH-1 (Rattus norvegicus, UniProt P97639); assay: Radioligand binding assay at cloned rat MCH1 receptor ([3H] Compound A); set-up: host or cells: Peak rapid 293 (Peakr293) cells, transient calcium phosphate transfection, membranes; settings: cloned rat MCH1 receptor; 0.08 nM [3H] Compound A; Peakr293 cell membranes; read-out: Ki (nM) rMCH1
VALUE TYPE: Ki
Form field: result (number plus unit)

Example results:
SMILES RECORD	EXPERIMENTAL TARGET	Ki
CC(C)C(=O)Nc1cccc(C2CCN(CC[C@H](Oc3ccc(Cl)c(Cl)c3)c3ccccc3)CC2)c1	rat MCH-1 (Rattus norvegicus, UniProt P97639)	10.8 nM
CC(C)C(=O)Nc1cccc(C2CCN(CCCCCCNC(=O)Nc3ccc(-c4ccccc4)cc3)CC2)c1	rat MCH-1 (Rattus norvegicus, UniProt P97639)	73.6 nM
COc1ccc2[nH]c(-c3ccc(F)cc3)c(CCCN3CCC(c4cccc(NC(=O)C(C)C)c4)CC3)c2c1	rat MCH-1 (Rattus norvegicus, UniProt P97639)	2 nM

Looking up CC(C)C(=O)Nc1cccc(C2CCN(Cc3c[nH]c4ccc(C#N)cc34)CC2)c1 , I found its Ki recorded as 434 nM

For this molecule ( CC(C)C(=O)Nc1cccc(C2CCN(CCCNS(=O)(=O)c3ccc(C(C)(C)C)cc3)CC2)c1 ), measured Ki is 85.3 nM

Value of measured Ki for the entry Cc1ccccc1-n1ccc2cc(CN3CCC(c4cccc(NC(=O)C(C)C)c4)CC3)ccc21 : 10.2 nM

Reported Ki for CC(C)C(=O)Nc1cccc(C2CCN(Cc3c[nH]c4ccc(F)cc34)CC2)c1 was 772 nM

For record CC(C)C(=O)Nc1cccc(C2CCN(Cc3cccc4c3ccn4-c3ccc(F)cc3Cl)CC2)c1 the listed Ki is 94.6 nM

Just so you know, measured Ki for CC(C)C(=O)Nc1cccc(C2CCN(CCCCNC(=O)c3cc(Cl)cc(Cl)c3)CC2)c1 came out at 31.1 nM

Sure, the documented Ki for COc1ccc2[nH]c(-c3cccc(Br)c3)c(CCCN3CCC(c4cccc(NC(=O)C(C)C)c4)CC3)c2c1 is 6.5 nM

Noted for CC(C)c1ccc(C(=O)CCCN2CCC(c3cccc(NC(=O)C4CC4)c3)CC2)cc1 : its Ki reads 67.7 nM
